The reported numbers originate from patent US20240279207A1.

Listed next: entries and their corresponding IC50.
System: ESR1 transcription in MVLN cells
Test: MVLN reporter assay: repression of ESR1 transcription (luciferase signal)
Format: cell-based
Test context: Homo sapiens, MVLN, 24 h, luciferase signal after 24 h, read-out: MVLN reporter assay, IC50 [M] (arithmetic mean)
Measured metric: IC50 (M)

[[record]]
smiles_input = "CCC(=O)Nc1cccc2c(S(=O)(=O)NC(=O)c3cc4c(F)cc(N5CCC5)cc4o3)cccc12"
measured_metric = "IC50"
qual = ">"
measurement = "2e-05"

[[record]]
smiles_input = "O=C(NS(=O)(=O)c1cnn2c1OCCC2)c1cc2c(F)cc(N3CCC3)cc2o1"
measured_metric = "IC50"
qual = "="
measurement = "5.21e-06"

[[record]]
smiles_input = "O=C(NS(=O)(=O)c1ccccc1-c1ccccc1)c1cc2ccc(N3CCC3)cc2o1"
measured_metric = "IC50"
qual = "="
measurement = "3.85e-07"

[[record]]
smiles_input = "Cc1cnc(Cl)c(S(=O)(=O)NC(=O)c2cc3c(F)cc(N4CCC4)cc3o2)c1"
measured_metric = "IC50"
qual = "="
measurement = "5.29e-06"

[[record]]
smiles_input = "CCOc1ccc(C(C)C)cc1S(=O)(=O)NC(=O)c1cc2c(F)cc(N3CCC3)cc2o1"
measured_metric = "IC50"
qual = "="
measurement = "1.9e-08"

[[record]]
smiles_input = "CC(C)OC(=O)c1ccccc1S(=O)(=O)NC(=O)c1cc2c(F)cc(N3CCC3)cc2o1"
measured_metric = "IC50"
qual = "="
measurement = "1.94e-06"

[[record]]
smiles_input = "CCOc1ccc(CC)cc1S(=O)(=O)NC(=O)c1cc2c(F)cc(N3CC(F)C3)cc2o1"
measured_metric = "IC50"
qual = "="
measurement = "4.69e-08"

[[record]]
smiles_input = "CC(C)Oc1ccccc1S(=O)(=O)NC(=O)c1cc2c(F)cc(N3CCC3)cc2o1"
measured_metric = "IC50"
qual = "="
measurement = "2.74e-08"

[[record]]
smiles_input = "COc1ccc(-c2cccc(F)c2)cc1S(=O)(=O)NC(=O)c1cc2c(F)cc(N3CCC3)cc2o1"
measured_metric = "IC50"
qual = "="
measurement = "2.95e-07"

[[record]]
smiles_input = "COc1ccc(C(C)(C)C)cc1S(=O)(=O)NC(=O)c1cc2c(F)cc(N3CCC3)cc2o1"
measured_metric = "IC50"
qual = "="
measurement = "3.54e-09"

[[record]]
smiles_input = "CC1(C)CCN1c1cc(F)c2cc(C(=O)NS(=O)(=O)c3ccccc3-c3ccccc3)oc2c1"
measured_metric = "IC50"
qual = "="
measurement = "1.05e-05"

[[record]]
smiles_input = "CN(C)C(=O)c1ccccc1S(=O)(=O)NC(=O)c1cc2c(F)cc(N3CCC3)cc2o1"
measured_metric = "IC50"
qual = "="
measurement = "1.51e-06"

[[record]]
smiles_input = "O=C(NS(=O)(=O)c1c(F)cccc1NC1CC1)c1cc2c(F)cc(N3CCC3)cc2o1"
measured_metric = "IC50"
qual = "="
measurement = "1.42e-06"

[[record]]
smiles_input = "CCOc1ccc(Br)cc1S(=O)(=O)NC(=O)c1cc2c(F)cc(N3CCC3)cc2o1"
measured_metric = "IC50"
qual = "="
measurement = "9.74e-08"

[[record]]
smiles_input = "O=C(NS(=O)(=O)c1ccccc1OC(F)(F)F)c1cc2c(F)cc(N3CCC3)cc2o1"
measured_metric = "IC50"
qual = "="
measurement = "2.06e-07"

[[record]]
smiles_input = "O=C(NS(=O)(=O)c1cccc2c(N3CCOCC3)cccc12)c1cc2c(F)cc(N3CCC3)cc2o1"
measured_metric = "IC50"
qual = "="
measurement = "2.55e-06"

[[record]]
smiles_input = "CCOCc1ccc(Cl)c(S(=O)(=O)NC(=O)c2cc3c(F)cc(N4CCC4)cc3o2)c1"
measured_metric = "IC50"
qual = "="
measurement = "1.72e-06"

[[record]]
smiles_input = "CC(C)Nc1ccc(Cl)cc1S(=O)(=O)NC(=O)c1cc2c(F)cc(N3CCC3)cc2o1"
measured_metric = "IC50"
qual = "="
measurement = "1.41e-06"

[[record]]
smiles_input = "CC(C)c1ccc(OCC(F)(F)F)c(S(=O)(=O)NC(=O)c2cc3c(F)cc(N4CCC4)cc3o2)c1"
measured_metric = "IC50"
qual = "="
measurement = "7.43e-08"

[[record]]
smiles_input = "CCNc1ccccc1S(=O)(=O)NC(=O)c1cc2c(F)cc(N3CCC3)cc2o1"
measured_metric = "IC50"
qual = "="
measurement = "1.15e-06"

[[record]]
smiles_input = "Cn1nc2cccc(S(=O)(=O)NC(=O)c3cc4c(F)cc(N5CCC5)cc4o3)c2n1"
measured_metric = "IC50"
qual = "="
measurement = "5.53e-07"

[[record]]
smiles_input = "CCCc1cccc(C(F)(F)F)c1S(=O)(=O)NC(=O)c1cc2c(F)cc(N3CCC3)cc2o1"
measured_metric = "IC50"
qual = "="
measurement = "3.87e-06"

[[record]]
smiles_input = "Cc1ccc(F)c(S(=O)(=O)NC(=O)c2cc3c(F)cc(N4CCC4)cc3o2)c1"
measured_metric = "IC50"
qual = "="
measurement = "9.91e-07"

[[record]]
smiles_input = "COC(=O)/C=C/c1ccccc1S(=O)(=O)NC(=O)c1cc2c(F)cc(N3CCC3)cc2o1"
measured_metric = "IC50"
qual = "="
measurement = "2.56e-06"

[[record]]
smiles_input = "COc1cc(C)ccc1S(=O)(=O)NC(=O)c1cc2c(F)cc(N3CC(F)C3)cc2o1"
measured_metric = "IC50"
qual = "="
measurement = "1.05e-07"

[[record]]
smiles_input = "CCOc1ccccc1S(=O)(=O)NC(=O)c1cc2ccc(N3CC(C(F)(F)F)C3)cc2o1"
measured_metric = "IC50"
qual = "="
measurement = "1.73e-05"

[[record]]
smiles_input = "Cc1cccc(C(C)C)c1S(=O)(=O)NC(=O)c1cc2c(F)cc(N3CCC3)cc2o1"
measured_metric = "IC50"
qual = "="
measurement = "1.58e-06"

[[record]]
smiles_input = "O=C(NS(=O)(=O)c1c[nH]c2ccccc12)c1cc2c(F)cc(N3CCC3)cc2o1"
measured_metric = "IC50"
qual = "="
measurement = "1.88e-07"

[[record]]
smiles_input = "Cc1cccc(C2CCCC2)c1S(=O)(=O)NC(=O)c1cc2c(F)cc(N3CCC3)cc2o1"
measured_metric = "IC50"
qual = "="
measurement = "5.6e-06"

[[record]]
smiles_input = "Cc1cc(C(C)(C)C)cc(S(=O)(=O)NC(=O)c2cc3c(F)cc(N4CCC4)cc3o2)c1C"
measured_metric = "IC50"
qual = "="
measurement = "1.3e-07"

[[record]]
smiles_input = "CC(C)Oc1cccc(Br)c1S(=O)(=O)NC(=O)c1cc2c(F)cc(N3CCC3)cc2o1"
measured_metric = "IC50"
qual = "="
measurement = "7.88e-07"

[[record]]
smiles_input = "CC1(C)CCN1c1cc(F)c2cc(C(=O)NS(=O)(=O)c3ccccc3)oc2c1"
measured_metric = "IC50"
qual = ">"
measurement = "2e-05"

